Data origin: ChEMBL document CHEMBL1201862

System: LOX IMVI
Method notes: NCI tumour cell line growth inhibition, 48 h
The source made the active and inactive calls. Rule as the data show it: active = GI50 up to about 1.1 µM and inactive = higher.
Field: GI50. Provide a value for each of the compounds that follow.

N#Cc1ccc(-c2nc3c(N)ncnc3o2)cc1 tested on LOX IMVI gave GI50: > 100 µM (inactive)

O=C(NC1=C(Cl)C(=O)c2ccccc2C1=O)C(=O)C(C(=O)c1ccc2ccccc2c1)C1OC(=O)c2ccccc21 (centres undefined) tested on LOX IMVI gave GI50: 1.08 µM (active)

COc1cc([C@@H]2c3cc4c(c(O[C@@H]5O[C@H]6CO[C@@H](C)O[C@H]6[C@H](O)[C@@H]5O)c3C[C@H]3COC(=O)[C@@H]32)OCO4)cc(OC)c1O tested on LOX IMVI gave GI50: 4.73 µM (inactive)

CO[C@H]1[C@@H](O)[C@@H](C)O[C@@H](O[C@H]2CC[C@@]3(C)[C@H](CC[C@@H]4[C@@H]3CC[C@]3(C)[C@@H](C5=CC(=O)OC5)[C@@H](OC(C)=O)C[C@]43O)C2)[C@@H]1O [NERITALOSIDE] tested on LOX IMVI gave GI50: 0.0708 µM (active)

Nc1nc(Sc2ccc([N+](=O)[O-])c3nonc23)c2nc[nH]c2n1 tested on LOX IMVI gave GI50: 0.232 µM (active)

S=C1Cc2c([nH]c3ccccc23)-c2ccccc2N1 tested on LOX IMVI gave GI50: 75.2 µM (inactive)

O=S(=O)(O)c1ccc2c(/N=N/c3ccc(Cl)cc3)c(O)ccc2c1 tested on LOX IMVI gave GI50: > 100 µM (inactive)

COc1nc(-c2c[nH]c3ccccc23)cnc1N tested on LOX IMVI gave GI50: 25.3 µM (inactive)

COC(=O)C1=C(C)NC(C)=C(C(=O)OC)C1c1ccc(N=O)cc1 tested on LOX IMVI gave GI50: 5.9 µM (inactive)
